Attribution: PubChem BioAssay (NCI)

- Tested on: CAKI-1 renal
- assay.name: NCI-60 one-dose screen, 48 h
- measurement.context: 10 µM unless noted
The panel holds about 83,000 compounds, 20% with a hit somewhere; the sample as a whole holds those more often. Calls of active or inactive are those of the source. Rule for the calls: active = growth percent below 10; inactive = the rest.
Classes to choose from: 1.0 (active), 0.0 (inactive)

Consider the worked cases shown below.
compound: O=C(CN1CCOCC1)Nc1ccc2ncnc(Nc3ccc(Oc4cccc(F)c4)c(Cl)c3)c2c1
cat: 0.0

compound: O=C1c2cccnc2C(=O)c2nc3cc(N4CCN(C5CC5)CC4)ccc3nc21
cat: 1.0

compound: COc1ccc(C(=O)c2cc(C)c(OC)c(C)c2)c(OC)c1N(C(=O)C(Cl)Cl)C(=O)C(Cl)Cl
cat: 0.0

compound: CC(=O)N1c2ccccc2NC2=C(C(=O)N(Cc3ccccc3)C2(C)C)C1c1ccco1 (centres undefined)
cat: 0.0

compound: CN1C2CCC1CN(c1cnc(C(=O)Nc3cc(F)cc4cccnc34)cn1)C2
cat: 0.0

Which outcome was assigned to `COc1ccc(-n2cc(-c3cc(OC)c(OC)c(OC)c3)n(C(C)=O)c2=O)cc1` in this test? 0.0

Okay, and `O=C1Nc2ccccc2/C1=C\c1cccc(/C=C2/C(=O)Nc3ccccc32)n1` ? 1.0

Okay, and `COc1ccc(C(=O)c2cc3c(N)c(C(=O)Nc4cccc5ccccc45)sc3nc2C)cc1` ? 0.0

Okay, and `COc1cc2nc(-c3ccc(C(F)(F)F)cc3)cc(OCCN3CCC(O)CC3)c2cc1OC` ? 0.0

Okay, and `CCNC(=O)c1[nH]cc(-c2ccc(OC)cc2)c1-c1cc(OC)cc(OC)c1` ? 0.0

Okay, and `CC(C)(C)OC(=O)N1C/C(=C\c2ccoc2)C(=O)/C(=C/c2ccoc2)C1` ? 0.0

Okay, and `O=C1c2ccccc2C(=O)c2c(NCCN=Cc3ccccc3O)cccc21` ? 1.0

Okay, and `Nc1ncc(C#Cc2cncc(NC(=O)c3cccc(C(F)(F)F)c3)c2)c2cccnc12` ? 0.0

Okay, and `CCOc1cc(CNc2ccc(N3CCOCC3)c(C(=O)O)c2)ccc1OC` ? 0.0

Okay, and `O=C(N/N=C/c1cccnc1)c1ccccc1Nc1cccc(C(F)(F)F)c1` ? 0.0

Okay, and `O=C(Nc1ccc2cc3ccc(NC(=O)NC4CCCCC4)cc3nc2c1)NC1CCCCC1` ? 0.0

Okay, and `COc1ccc(C(=O)c2cc3c(N)c(C(=O)Nc4ccc(Br)cc4)sc3nc2C)cc1` ? 0.0

Okay, and `COc1ccc(-c2cnnc3c(-c4cccc(C(F)(F)F)c4)cnn23)cc1` ? 1.0

Okay, and `CC(=O)c1c[nH]c2ccc(-c3ccnc(Nc4ccc(NC(=O)c5cccc(F)c5)c(CN5CCOCC5)c4)n3)cc12` ? 1.0

###

- Test system: HCT-15 colon
- assay.name: NCI-60 one-dose screen, 48 h (100 = growth as untreated, 0 = no growth, -100 = all killed)
- measurement.context: 10 µM unless noted
About 83,000 compounds went through this panel and 20% of them were active in at least one assay; those are over-represented in the sample as a whole.
result.type: growth (%)
The response must be a number in % with no trailing unit.

compound: NC(=S)N/N=C(\c1ccc(Cl)cc1)C1CC1
growth [%]: 84.3

compound: CN1CCN(c2cc(F)c(NC3=C(Cl)C(=O)c4ncccc4C3=O)c(F)c2)CC1
growth [%]: -8.53

compound: COc1ccc(-c2cnnc3c(-c4cccc(C(F)(F)F)c4)cnn23)cc1
growth [%]: 68.3

compound: O=C(c1ccccc1)N1N=C(c2ccc(-n3ccc(C(F)(F)F)n3)cc2)CC1c1ccc[nH]1 (stereo not given)
growth [%]: 70.6

compound: C(=C\c1n(Cc2ccc3ccccc3c2)c(-c2ccccc2)c(-c2ccccc2)[n+]1Cc1ccc2ccccc2c1)/c1ccccc1
growth [%]: -81.2

Which growth value is on record for `CC1(C)CN(c2cnc(C(=O)Nc3cc(F)cc4cccnc34)cn2)CCN1` ? 59.3

Okay, and `C[C@@H]1CN(Cc2ccc(/C=C/c3n[nH]c4ccc5nc(-c6cn[nH]c6C(F)(F)F)c6c(c5c34)CCCC6)cc2)C[C@H](C)O1` ? 7.35

Okay, and `Nc1nnc2cc(Cl)ccc2n1` ? 94.2

Okay, and `Cc1cc(Nc2cccc(C(F)(F)F)c2)n2c(nc3ccccc32)c1C#N` ? 12.2

Okay, and `O=S(=O)(NCCNc1nccc(-c2c(-c3cccc(F)c3)nc3occn23)n1)c1cccc2ccccc12` ? 41.5
